Cited source for all entries: patent US20250019437A1

Target: T1, human TREM2 (triggering receptor expressed on myeloid cells 2) (human) (UniProt Q9NZC2)
T1 sequence (looked up): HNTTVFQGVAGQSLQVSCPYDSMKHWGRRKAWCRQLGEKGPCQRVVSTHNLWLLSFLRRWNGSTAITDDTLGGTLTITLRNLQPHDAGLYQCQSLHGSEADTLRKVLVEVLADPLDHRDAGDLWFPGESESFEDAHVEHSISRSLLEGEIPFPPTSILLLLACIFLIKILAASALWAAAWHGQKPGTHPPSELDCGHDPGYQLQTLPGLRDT
Assay: 2nd screen, 10 nM Ab
MEASUREMENT_TYPE: Binding Signal (fold over 6E7 parental antibody) (fold)
Please respond with the number in fold and leave the unit unwritten.

6E7 antibody affinity modulation variant V27 (antibody, V domains shown) VH: EVQLVQSGAEVKKPGESLKISCKGSGYSFTSYWIAWVRQMPGKGLEWMGIIYPGDSDTRYAPSFQGQVTISADKSISTAYLQWSSLKASDTAMYFCVRSRTFYYDSSDYFDYWGQGTLVTVSS VL: DIQMTQSPSSVSASVGDRVTITCRASQGISSWLAWYQQKPGKAPKLLIYAASSLQRGVPSRFSGSGSGTDFTLTISSLQPEDFATYFCQQADSFPRTFGQGTKLEIK :: 5.69

Pending binder:
Q: Query Binding Signal (fold over 6E7 parental antibody) for 6E7 antibody affinity modulation variant V84 (antibody, V domains shown) VH: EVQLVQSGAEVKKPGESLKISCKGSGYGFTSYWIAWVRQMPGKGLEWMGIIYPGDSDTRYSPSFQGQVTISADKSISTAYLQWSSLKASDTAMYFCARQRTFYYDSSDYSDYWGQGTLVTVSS VL: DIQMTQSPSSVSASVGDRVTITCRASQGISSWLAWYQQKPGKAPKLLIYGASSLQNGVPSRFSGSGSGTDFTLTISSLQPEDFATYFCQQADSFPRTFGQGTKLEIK
Ans: 1.62
